Test system: Pseudomonas aeruginosa
ASSAY METHOD TEXT: Antibacterial activity against PER-1 producing Pseudomonas aeruginosa isolate P170 exhibiting PFGE G pattern by 2-fold agar dilution method
Type: functional
PROPERTY: log10(MIC) (log10 of the value in µg/mL)

| MOLECULE | log10(MIC) |
| --- | --- |
| C[C@H]1[C@H](NC(=O)/C(=N\OC(C)(C)C(=O)O)c2csc(N)n2)C(=O)N1S(=O)(=O)O [AZTREONAM] | 2.11 |
| O=C(O)c1cn(C2CC2)c2cc(N3CCNCC3)c(F)cc2c1=O [CIPROFLOXACIN] | 1.81 |
| CC(C)(O/N=C(\C(=O)N[C@@H]1C(=O)N2C(C(=O)[O-])=C(C[n+]3ccccc3)CS[C@H]12)c1csc(N)n1)C(=O)O [CEFTAZIDIME] | 2.41 |
| C[C@@H](O)[C@H]1C(=O)N2C(C(=O)O)=C(SCCNC=N)C[C@H]12 [IMIPENEM ANHYDROUS] | 0.60 |
| NCC[C@H](O)C(=O)N[C@@H]1C[C@H](N)[C@@H](O[C@H]2O[C@H](CN)[C@@H](O)[C@H](O)[C@H]2O)[C@H](O)[C@H]1O[C@H]1O[C@H](CO)[C@@H](O)[C@H](N)[C@H]1O [AMIKACIN] | 1.51 |
| CC1(C)S[C@@H]2[C@H](NC(=O)[C@H](C(=O)O)c3ccsc3)C(=O)N2[C@H]1C(=O)O [TICARCILLIN] | 2.71 |
| CO/N=C(\C(=O)N[C@@H]1C(=O)N2C(C(=O)[O-])=C(C[N+]3(C)CCCC3)CS[C@H]12)c1csc(N)n1 | 1.81 |

Taken from ChEMBL document CHEMBL1275261.
